# measured-on: T1, human PVRIG-mFc protein (Acro, PVG-H5253) (human, UniProt Q6DKI7 41-171, limits assumed)
# T1 construct: extracellular domain; Bought protein; also called PVRIG-ECD-mFc; not shown: mouse Fc tag of the bought protein
# T1 sequence (looked up): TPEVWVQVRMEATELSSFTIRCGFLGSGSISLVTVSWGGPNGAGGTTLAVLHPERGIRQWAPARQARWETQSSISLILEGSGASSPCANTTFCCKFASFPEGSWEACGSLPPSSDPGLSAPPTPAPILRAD
# assay-details: FACS blocking of PVRIG-mFc binding to CHO-K1-CD112 cells; competitor CD112
Assignment: determine reported % AUC to COM701-hIgG4 for the given binders.
The reply should be a number in %, with the unit left off.

Entry PVRIG-A118-H5 (Fc fusion, VHH-human IgG1 Fc format is stated for the parental VHH antibodies; not restated for the humanized variants; also called A118.VH5; not shown: human IgG1 hinge-CH2-CH3 (Fc)) EVQLVESGGGLVQPGGSLRLSCAASETYFDLYVMGWYRQAPGKDRELVATITYTGSIKYVDSVKGRFTISRGDAKNSVYLQMNSLRAEDTAVYYCNADPSGLGRKVYWGQGTMVTVSS ; % AUC to COM701-hIgG4 = 127

Entry PVRIG-A50-H1d (Fc fusion, VHH-human IgG1 Fc format is stated for the parental VHH antibodies; not restated for the humanized variants; also called A50.VH1d; not shown: human IgG1 hinge-CH2-CH3 (Fc)) EVQLVESGGGLVQPGGSLRLSCAASGFTFSYYDMSWVRQAPGKGLEWVSTINSNGGRTSYVDSVKGRFTISRDNSKNTLYLQMNSLRAEDTAVYYCVEGDPHNFGLESLSLRDFGSWGQGTMVTVSS ; % AUC to COM701-hIgG4 = 121

Entry PVRIG-A105-H4 (Fc fusion, VHH-human IgG1 Fc format is stated for the parental VHH antibodies; not restated for the humanized variants; also called A105.VH4; not shown: human IgG1 hinge-CH2-CH3 (Fc)) EVQLVESGGGLVQPGGSLRLSCAASGRTFDRHTMTWFRQAPGKEREFVATASRIPGDTYYSHSVKGRFTISRDNAKNSLYLQMNSLRAEDTAVYYCAATSAYCSEVDCYEKGSWYDNWGQGTMVTVSS ; % AUC to COM701-hIgG4 = 112

Entry PVRIG-A105-H3 (Fc fusion, VHH-human IgG1 Fc format is stated for the parental VHH antibodies; not restated for the humanized variants; also called A105.VH3; not shown: human IgG1 hinge-CH2-CH3 (Fc)) EVQLVESGGGLVQPGGSLRLSCAASGRTFDRHTMTWFRQAPGKEREFVATASRIPGDTYYVDSVKGRFTISRDNAKNSVYLQMNSLRAEDTAVYYCAATSAYCSEVDCYEKGSWYDNWGQGTMVTVSS ; % AUC to COM701-hIgG4 = 109

Entry PVRIG-A50-H1a (Fc fusion, VHH-human IgG1 Fc format is stated for the parental VHH antibodies; not restated for the humanized variants; also called A50.VH1a; not shown: human IgG1 hinge-CH2-CH3 (Fc)) EVQLVESGGGLVQPGGSLRLSCAASGFTFSYYDMSWVRQAPGKGLEWVSTINSDGGRTSYVDSVKGRFTISRDNSKNTLYLQMNSLRAEDTAVYYCVEGDPHNFGLENLSLRDFGSWGQGTMVTVSS ; % AUC to COM701-hIgG4 = 125

Entry PVRIG-A105 (Fc fusion, Alpaca VHH expressed as VHH-hinge-CH2-CH3 of human IgG1; not shown: human IgG1 hinge-CH2-CH3 (Fc)) EVQLVESGGGLVQAGGSLRLSCAASGRTFDRHTMTWFRQAPGKEREFVATASRIPGDTYYSHSVKGRFTISRDNAKNTVYLQLNNLKPEDTAVYYCAATSAYCSEVDCYEKGSWYDNWGQGIQVTVSS ; % AUC to COM701-hIgG4 = 114
